I'd appreciate it if you could supply TGI values for the items below.
Tested on: NCI-H23 lung
Test description: NCI tumour cell line growth inhibition, 48 h
Your answer is read as µM, so omit the unit and give the number.

q: Reported TGI for `CCCc1n(Cc2ccc3ccccc3n2)cc[n+]1Cc1ccc2ccccc2c1` : what is it?
a: 10.6

q: Reported TGI for C=C(C)C1CC2=C(O1)C(=O)c1cccc(O)c1C2=O (configuration not stated) : what is it?
a: 0.935

q: Reported TGI for `ClCCc1ccccc1CC1=NCCc2ccccc21` : what is it?
a: 74.5

q: Reported TGI for `CCCCCCCCCC[N+](C)(C)C` : what is it?
a: 6.34

q: Reported TGI for `COc1cc2c3c(c1OC)C(=O)C(=O)C1=C3N(CCC1)CC2` : what is it?
a: 86.3

q: Reported TGI for `COc1ncc(C#CC(=O)c2ccccc2)c(OC)n1` : what is it?
a: 10.9

====

I'd appreciate it if you could supply TGI values for the items below.
Tested on: SN12C renal
Test description: NCI tumour cell line growth inhibition, 48 h
Square brackets hold non-standard residues; d marks the D form. Peptide text beside a SMILES is read from it. Phe(4-NO2) = N[CH](Cc1ccc([N+](=O)[O-])cc1)C(=O)O

q: Reported TGI for CC(C)C1=CC23CCC4C(C)(C(=O)O)CCCC4(C)C2CC1C1C(=O)N(c2cccc(N4C(=O)C5C6CC7C8(C)CCCC(C)(C(=O)O)C8CCC7(C=C6C(C)C)C5C4=O)c2)C(=O)C13 (configuration not stated) : what is it?
a: 27.1 µM

q: Reported TGI for `O=C(NNC(=O)c1c(Cl)c(Cl)c(Cl)c(Cl)c1-c1nc2ccccc2[nH]1)c1ccc(Cl)cc1` : what is it?
a: > 100 µM

q: Reported TGI for `N[C@@H](Cc1ccc2oc3cc(=O)c4ccccc4c-3nc2c1)C(=O)O` : what is it?
a: > 100 µM

q: Reported TGI for `N#Cc1ccc(NC(=O)Nc2nc3ccc(OC(F)(F)F)cc3s2)cc1` : what is it?
a: 8.64 µM

q: Reported TGI for `NS(=O)(=O)c1nnc(NC(=O)/C=C/C(=O)O)s1` : what is it?
a: > 100 µM

q: Reported TGI for `COc1ccc(/C=C2\CCc3ccccc3C2=O)cc1OC` : what is it?
a: 95.7 µM

q: Reported TGI for `CC1(C)Oc2ccccc2[N+]([O-])=C1c1ccccc1` : what is it?
a: > 100 µM

q: Reported TGI for `COC(=O)/C=C/c1cnc2c(c1)oc(=O)n2C` : what is it?
a: > 100 µM

q: Reported TGI for `CCOc1ccc(N=Cc2ccc3ccccc3n2)cc1` : what is it?
a: > 100 µM

q: Reported TGI for NC(Cc1c[nH]c2cc(F)ccc12)C(=O)O (configuration not stated) : what is it?
a: > 2500 µM

q: Reported TGI for CC(C)C1NC(=O)[C@H](C)OC(=O)[C@@H](C(C)C)NC(=O)[C@@H](C)OC(=O)C(C(C)C)NC(=O)[C@H](C)OC1=O (some centres not stated) : what is it?
a: > 100 µM

q: Reported TGI for COc1ccc2c(c1OC)C(C=C(c1ccccc1)c1ccccc1)CN(C)C2 (configuration not stated) : what is it?
a: > 100 µM

q: Reported TGI for `COc1ccc2c(c1)C(=O)[C@@](Nc1ccc(C=O)cc1)(OC)[C@@](OC)(c1ccc([N+](=O)[O-])cc1)O2` : what is it?
a: > 10 µM

q: Reported TGI for COC(=O)CCC(NC(=O)C(CCC(=O)OC)NC(=O)C(CCC(=O)OC)NC(=O)C(CCC(=O)OC)NC(=O)C(CCC(=O)OC)NC(=O)C(Cc1ccc([N+](=O)[O-])cc1)NC(=O)C(CCC(=O)OC)NC(=O)C(CCC(=O)OC)NC(=O)C(CCC(=O)OC)NC(=O)C(CCC(=O)OC)NC(=O)C(CCC(=O)OC)NC(C)=O)C(N)=O (configuration not stated) (Ac-E(OMe)E(OMe)E(OMe)E(OMe)E(OMe)[Phe(4-NO2)]E(OMe)E(OMe)E(OMe)E(OMe)E(OMe)-NH2; configuration not given here) : what is it?
a: > 100 µM

q: Reported TGI for CS(=O)(=O)CCC(N)P(=O)(O)O (configuration not stated) : what is it?
a: > 100 µM

q: Reported TGI for `CCNC1=C(NC(=O)CCl)C(=O)c2ccccc2C1=O` : what is it?
a: 32.8 µM

q: Reported TGI for CC(=O)OC1(C#N)CC2OC1C1N=NN(C(=O)OC(C)(C)C)C21 (configuration not stated) : what is it?
a: > 100 µM

Ref: PubChem BioAssay (NCI)
